Biological target: hPPARβ chimeric receptor (Homo sapiens, UniProt Q03181)
Construct: "expression plasmids encoding hPPARα, hPPARβ or mPPARγ chimeric receptors"
Sequence (Q03181 171-441 limits assumed): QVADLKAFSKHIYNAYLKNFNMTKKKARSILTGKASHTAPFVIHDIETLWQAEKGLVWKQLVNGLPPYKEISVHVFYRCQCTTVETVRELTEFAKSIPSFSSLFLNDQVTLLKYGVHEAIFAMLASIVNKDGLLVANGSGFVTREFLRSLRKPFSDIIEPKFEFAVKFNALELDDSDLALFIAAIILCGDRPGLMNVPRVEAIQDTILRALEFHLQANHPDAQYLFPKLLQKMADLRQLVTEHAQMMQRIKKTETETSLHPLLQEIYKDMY
Experiment: Transient transfections assay using the HepG2 hepatoma cell line (Gal4-PPAR chimeric receptor, luciferase reporter), hPPARβ
Conditions: HepG2 cells transiently transfected, 24 hours incubation, read-out: Hep G2-hβ EC50
Source text: 1. Test A. Transient Transfections Assay using the HepG2 Hepatoma Cell Line. HepG2 cells were transiently transfected with an expression plasmids encoding hPPARα, hPPARβ or mPPARγ chimeric receptors and a reporter containing the yeast upstream activating sequence (UAS) upstream of the viral E1B promoter controlling a luciferase reporter gene. In addition, the plasmid pRSVβ-gal was used to control for transfection efficiency. […]
Metric: EC50 (µM)

See these solved cases before continuing.
INSERT INTO measurements (smi, metric, unit_spec, result) VALUES
  ('Cc1nc(-c2ccc(C(F)(F)F)cc2)sc1CSc1ccc(OCC(=O)O)c2c1OCCC2', 'EC50', 'µM', 0.187),
  ('Cc1cc(SCc2sc(-c3ccc(C(F)(F)F)cc3)nc2C)c2c(c1OCC(=O)O)CCCO2', 'EC50', 'µM', 0.045),
  ('Cc1nc(-c2ccc(C(F)(F)F)cc2)sc1CSc1ccc(OCC(=O)O)c2ccccc12', 'EC50', 'µM', 0.076),
  ('Cc1cc(SCc2sc(-c3ccc(C(F)(F)F)cc3)nc2C)c2c(c1OCC(=O)O)CCC2', 'EC50', 'µM', 0.133);

I. Cc1cc(SCc2sc(-c3ccc(C(F)(F)F)cc3)nc2C)c2c(c1OCC(=O)O)CCO2
II. Cc1nc(-c2ccc(C(F)(F)F)cc2)sc1CSc1ccc(OCC(=O)O)c2c1CCCC2
Data request: Form: Entry with minimum EC50 (choose one): I / II Output the label that corresponds to your choice.
Data returned: I
